assay_details: AUC (0.5 to 16 hrs) in plasma of B6C3F1 mouse at 2 mg/kg, iv
Type: ADME, organism-based
Design: time upper 16 hr, time lower 0.5 hr, dose 2 mg/kg, route intravenous
measured_attribute: AUC(0-t) (ng·h/mL)
Numbers only; they are read as ng·h/mL.

What AUC(0-t) value was documented for this compound, `Nc1scc2c(C(=O)NC3CC3)nn(-c3ccc(Cl)cc3)c(=O)c12` ? 297

====

Quick list: inhibition per entry.
assay_details: Inhibition of K18PL tau protein aggregation by orthogonal sedimentation based SDS-PAGE relative to control
condition_parameters: concentration not given here
Numbers only; they are read as %.

Examples with their reported inhibition follow.
CCNC(=O)c1nn(-c2ccc(Cl)cc2)c(=O)c2c(N)scc12 94
CCN(C)C(=O)c1nn(-c2ccc(Cl)cc2)c(=O)c2c(N)scc12 62
CNC(=O)c1nn(-c2ccc(Cl)cc2)c(=O)c2c(N)scc12 68
CCOC(=O)c1nn(-c2ccc(Cl)cc2)c(=O)c2c(N)scc12 70
CC(C)NC(=O)c1nn(-c2ccc(Br)cc2)c(=O)c2c(N)scc12 58

What inhibition value was documented for this compound, `CC(C)NC(=O)c1nn(-c2ccc(Cl)cc2)c(=O)c2c(N)scc12` ? 65

Same thing, different compound: `CC(C)OC(=O)c1nn(-c2ccc(Cl)cc2)c(=O)c2c(N)scc12` 44

Same thing, different compound: `Nc1scc2c(C(=O)NC3CC3)nn(-c3ccc(Cl)cc3)c(=O)c12` 69

Same thing, different compound: `Nc1scc2c(C(=O)O)nn(-c3ccc(Cl)cc3)c(=O)c12` 79

Same thing, different compound: `CN(C)C(=O)c1nn(-c2ccc(Cl)cc2)c(=O)c2c(N)scc12` 69

meta.source: ChEMBL document CHEMBL1158588
